Kindly supply the reported inhibition values for the records listed here.
# SUBJECT OF TEST: BDNF/NT-3 growth factors receptor (Homo sapiens)
# TEST CONTEXT: at 0.1 µM
Numbers only, in %.

Answered examples (5):
Fc1ccc(-c2nn3ccccc3c2-c2ccncc2)cc1 ... 0.38
COc1ccc(-c2cc(-c3c[nH]nc3-c3ccccn3)ccn2)cc1 ... 3.7
CC(C)COC(=O)c1ccc2c(c1)/C(=C/Nc1ccc(S(N)(=O)=O)cc1)C(=O)N2 ... 6.02
NS(=O)(=O)c1ccc(Nc2ncc(-c3ccccc3)o2)cc1 ... 5.29
c1ccc(COc2ccc(Nc3ncnc4ccc(-c5ccco5)cc34)cc2)cc1 ... -0.32

Lab note: each compound below needs its inhibition filled in.
1. Cc1ccc2c(-c3ccnc(Nc4ccccc4)n3)c(-c3ccc(F)cc3)nn2n1
2. COC(=O)c1sc(-n2cnc3cc(OC)c(OC)cc32)cc1OCc1ccccc1C(F)(F)F
3. COc1cc(/C=N/Nc2ncnc3[nH]ncc23)ccc1O
4. COc1ccc(-c2nn3ncccc3c2-c2ccnc(Nc3ccc4c(c3)OCCO4)n2)cc1
5. CCn1c(-c2nonc2N)nc2cnc(Oc3cccc(NC(=O)c4ccc(N(C)C)cc4)c3)cc21

[5.12, 5.22, 3.49, 1.61, 0.09]

###

Kindly supply the reported inhibition values for the records listed here.
# SUBJECT OF TEST: Insulin receptor-related protein (Homo sapiens)
# TEST CONTEXT: at 1 µM
Answer by giving the amount and then stating its unit.

Cc1cccc2c1NC(=O)/C2=N\Nc1ccc(S(N)(=O)=O)cc1 ... 0.05%
CCNC(=O)O[C@H]1CN[C@H](C#Cc2cc3ncnc(Nc4ccc(OCc5cccc(F)c5)c(Cl)c4)c3s2)C1 ... 1.47%
COC(=O)Nc1nc2ccc(Oc3ccc(NC(=O)Nc4cccc(Cl)c4)cc3)cc2[nH]1 ... -0.57%
CCn1c(-c2nonc2N)nc2cnc(Oc3cccc(NC(=O)c4ccc(N(C)C)cc4)c3)cc21 ... 0.53%

Now consider a different compound.
Value lookup for inhibition; key = CCn1c(-c2nonc2N)nc2ccccc21
2.08%

###

# SUBJECT OF TEST: Serine/threonine-protein kinase PAK 6 (Homo sapiens) (UniProt Q9NQU5)
# Sequence (Q9NQU5 whole entry, looked up): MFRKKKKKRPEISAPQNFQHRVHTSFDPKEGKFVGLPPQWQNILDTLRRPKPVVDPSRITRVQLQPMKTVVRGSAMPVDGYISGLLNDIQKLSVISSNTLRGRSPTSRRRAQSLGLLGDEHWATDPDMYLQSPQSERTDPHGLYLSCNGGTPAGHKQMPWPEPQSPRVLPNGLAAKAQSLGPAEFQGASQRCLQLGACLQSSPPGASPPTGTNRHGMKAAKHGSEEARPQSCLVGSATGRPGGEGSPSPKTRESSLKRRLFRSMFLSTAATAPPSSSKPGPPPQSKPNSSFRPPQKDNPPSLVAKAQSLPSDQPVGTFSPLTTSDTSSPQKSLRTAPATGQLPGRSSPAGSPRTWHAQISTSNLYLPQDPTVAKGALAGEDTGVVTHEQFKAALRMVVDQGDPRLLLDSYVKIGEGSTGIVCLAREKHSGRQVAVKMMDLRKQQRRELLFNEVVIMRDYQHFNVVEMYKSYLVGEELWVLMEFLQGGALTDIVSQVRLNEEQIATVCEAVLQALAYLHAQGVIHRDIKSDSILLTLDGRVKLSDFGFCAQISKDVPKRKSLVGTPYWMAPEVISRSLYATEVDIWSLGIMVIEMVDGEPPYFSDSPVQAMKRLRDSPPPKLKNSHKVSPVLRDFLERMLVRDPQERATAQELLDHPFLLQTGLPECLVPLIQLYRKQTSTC
# TEST CONTEXT: at 0.1 µM
Kindly supply the reported inhibition values for the records listed here.
Answers are plain numbers, in %.

Lab note: each compound below needs its inhibition filled in.
1. CC(=O)Nc1cccc(C#Cc2cncnc2Nc2ccc(OCc3cccc(F)c3)c(Cl)c2)c1
2. CCn1c(-c2nonc2N)nc2c(C#CC(C)(C)O)nc(OC[C@H](N)c3ccccc3)cc21
3. O=C(Nc1n[nH]c2cc(-c3ccc(F)cc3)ccc12)C1CC1
4. O=C(O[C@H]1CN[C@H](C#Cc2cc3ncnc(Nc4ccc(Cc5ccccc5)cc4)c3s2)C1)N1CCOCC1

[2.97, 49.4, 2.33, -2.8]

Lab note: each compound below needs its inhibition filled in.
1. CCn1c(-c2nonc2N)nc2ccccc21
2. CC(=O)NCc1cccc(C#Cc2cncnc2Nc2ccc(OCc3cccc(F)c3)c(Cl)c2)c1
3. CS(=O)(=O)CCNCc1ccc(-c2ccc3ncnc(Nc4ccc(OCc5ccccc5)c(C(F)(F)F)c4)c3c2)o1
4. N#Cc1c(NC(=O)CN2CCOCC2)sc2c1CCCC2
5. CCn1c(-c2nonc2N)nc2c(C#CC(C)(C)O)ncc(OC3CCNCC3)c21
6. COc1cccc(-n2ncc3c(N/N=C/c4ccc(F)cc4)ncnc32)c1

1. 0.13
2. 3.99
3. -5.25
4. 0.72
5. 14.6
6. 3.88

Lab note: each compound below needs its inhibition filled in.
1. CCn1c(-c2nonc2N)nc2cnc(Oc3cccc(NC(=O)c4ccc(N(C)C)cc4)c3)cc21
2. COc1ccc(CNC(=O)c2ccc(-c3cc(-c4nnc(C)o4)ccc3C)cc2)cc1
3. COC(=O)c1sc(-n2cnc3cc(OC)c(OC)cc32)cc1OCc1ccccc1C(F)(F)F

2.57
5.26
-7.92

Lab note: each compound below needs its inhibition filled in.
1. COC(=O)Nc1nc2ccc(S(=O)(=O)c3ccc(NC(=O)Nc4cc(C(F)(F)F)ccc4F)cc3)cc2[nH]1
2. Nc1ncc(-c2cccc(S(N)(=O)=O)c2)c2scc(-c3ccc(F)c(Cl)c3)c12
3. Fc1cccc(COc2ccc(Nc3ncnc4sc(-c5ccco5)cc34)cc2Cl)c1
4. CCCN1CCC(c2ccc(Nc3nc(Nc4cc(F)ccc4C(N)=O)c4cc[nH]c4n3)c(OC)c2)CC1
5. Clc1ccc(-c2nn3ncccc3c2-c2ccnc(Nc3ccccc3)n2)cc1
6. Cc1ccc(O)cc1Nc1ccnc2cc(-c3ccccn3)ccc12

1: -3.27; 2: -2.3; 3: 1.93; 4: -9.18; 5: 7.89; 6: 4.84

###

# SUBJECT OF TEST: RAC-alpha serine/threonine-protein kinase (Homo sapiens) (UniProt P31749)
# Sequence (P31749 whole entry): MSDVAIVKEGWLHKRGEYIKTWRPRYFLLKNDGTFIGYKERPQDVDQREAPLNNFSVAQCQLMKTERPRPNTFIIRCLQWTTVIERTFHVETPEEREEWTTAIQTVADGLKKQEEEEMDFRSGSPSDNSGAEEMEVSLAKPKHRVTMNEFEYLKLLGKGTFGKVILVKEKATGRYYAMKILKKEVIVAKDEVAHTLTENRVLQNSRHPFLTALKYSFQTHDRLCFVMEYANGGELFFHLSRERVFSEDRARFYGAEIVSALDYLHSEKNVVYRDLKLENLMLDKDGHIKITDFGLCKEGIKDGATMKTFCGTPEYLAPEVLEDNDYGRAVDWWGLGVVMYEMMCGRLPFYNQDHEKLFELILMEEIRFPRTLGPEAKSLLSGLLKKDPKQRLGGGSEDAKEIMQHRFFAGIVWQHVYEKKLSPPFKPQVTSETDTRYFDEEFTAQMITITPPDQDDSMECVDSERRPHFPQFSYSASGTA
# TEST CONTEXT: at 0.1 µM
QUANTITY MEASURED: inhibition (%)
Numbers only, in %.

Answered examples (4):
COC(=O)Nc1nc2ccc(S(=O)(=O)c3ccc(NC(=O)Nc4cc(C(F)(F)F)ccc4F)cc3)cc2[nH]1 ... 1.04
CCN(CC)S(=O)(=O)c1ccc(OC)c(Nc2ncc(-c3ccccc3)o2)c1 ... 0.87
COc1ccc(-c2oc3ncnc(N)c3c2-c2ccc(NC(=O)Nc3cc(C(F)(F)F)ccc3F)cc2)cc1 ... 1.18
c1cc(-c2cnn3nc(N4CCOCC4)ccc23)nc(NC2CC2)n1 ... 0.69

Item COc1ccc(-c2cc3c(N)ncnc3o2)cc1 with RAC-alpha serine/threonine-protein kinase (Homo sapiens) (UniProt P31749) - inhibition?
-0.96

###

Kindly supply the reported inhibition values for the records listed here.
# Tested on: Tyrosine-protein kinase ABL1 (Homo sapiens), P00519 [Y253F]
# TEST CONTEXT: at 0.1 µM
Answers are plain numbers, in %.

Answered examples (3):
Nc1nc(-c2cccc(Cl)c2)c(-c2ccc3ncccc3n2)s1 ... 5.66
O=C(Nc1n[nH]c2cc(-c3ccc(F)cc3)ccc12)C1CC1 ... 10.8
FC(F)(F)c1cccc(-c2nn3ncccc3c2-c2ccnc(Nc3ccc4c(c3)OCCO4)n2)c1 ... 5.94

Lab note: each compound below needs its inhibition filled in.
1. N#Cc1c(NC(=O)c2ccc(F)cc2)sc2c1CCCC2
2. NC(=O)c1sc(-n2cnc3ccc(C(F)(F)F)cc32)cc1OCc1ccccc1Br
3. COc1cc(N2CCN(C(C)C)CC2)ccc1Nc1nc(Nc2ccc(F)cc2C(N)=O)c2cc[nH]c2n1
4. CCc1nn2ncccc2c1-c1ccnc(NC2CC2)n1
5. c1ccc(COc2ccc(Nc3ncnc4ccc(-c5ccco5)cc34)cc2)cc1
6. c1ccc(-c2nc3n(c2-c2ccc4c(c2)OCO4)CCC3)nc1

0.83
3.65
0.29
1.02
0.09
1.92

Value lookup for inhibition; key = COc1ccc(-c2cc(-c3c[nH]nc3-c3ccccn3)ccn2)cc1
12.3

###

# SUBJECT OF TEST: Serine/threonine-protein kinase pim-3 (Homo sapiens)
# TEST CONTEXT: at 1 µM
# Description: GSK_PKIS: PIM3 mean inhibition at 1 uM [Nanosyn]
QUANTITY MEASURED: inhibition (%)
Give bare numbers, in %.

Cc1cccc(Nc2ncc(-c3ccccc3)o2)c1 ... 1.97
NC(=O)c1sc(-n2cnc3ccc(C(F)(F)F)cc32)cc1OCc1ccccc1Br ... 0.16
Fc1cccc(COc2ccc(Nc3ncnc4sc(-c5ccco5)cc34)cc2Cl)c1 ... -0.36
Cc1ccc(O)cc1Nc1ccnc2cc(-c3ccccn3)ccc12 ... -0.17

Now consider a different molecule.
Value lookup for inhibition; key = O=C(O[C@H]1CN[C@H](C#Cc2cc3ncnc(Nc4ccc(Cc5ccccc5)cc4)c3s2)C1)N1CCOCC1
3.8

###

# SUBJECT OF TEST: Macrophage-stimulating protein receptor (Homo sapiens) (UniProt Q04912)
# Sequence (Q04912 25-304 limits assumed): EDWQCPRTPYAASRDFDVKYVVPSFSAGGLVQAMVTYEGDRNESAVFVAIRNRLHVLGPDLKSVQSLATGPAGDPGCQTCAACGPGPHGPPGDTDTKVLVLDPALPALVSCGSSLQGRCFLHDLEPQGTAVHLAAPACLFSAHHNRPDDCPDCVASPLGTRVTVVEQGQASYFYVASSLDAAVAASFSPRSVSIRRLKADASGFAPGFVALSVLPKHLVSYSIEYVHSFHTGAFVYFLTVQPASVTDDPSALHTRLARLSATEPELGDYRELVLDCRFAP
# Sequence (Q04912 310-1400 limits assumed): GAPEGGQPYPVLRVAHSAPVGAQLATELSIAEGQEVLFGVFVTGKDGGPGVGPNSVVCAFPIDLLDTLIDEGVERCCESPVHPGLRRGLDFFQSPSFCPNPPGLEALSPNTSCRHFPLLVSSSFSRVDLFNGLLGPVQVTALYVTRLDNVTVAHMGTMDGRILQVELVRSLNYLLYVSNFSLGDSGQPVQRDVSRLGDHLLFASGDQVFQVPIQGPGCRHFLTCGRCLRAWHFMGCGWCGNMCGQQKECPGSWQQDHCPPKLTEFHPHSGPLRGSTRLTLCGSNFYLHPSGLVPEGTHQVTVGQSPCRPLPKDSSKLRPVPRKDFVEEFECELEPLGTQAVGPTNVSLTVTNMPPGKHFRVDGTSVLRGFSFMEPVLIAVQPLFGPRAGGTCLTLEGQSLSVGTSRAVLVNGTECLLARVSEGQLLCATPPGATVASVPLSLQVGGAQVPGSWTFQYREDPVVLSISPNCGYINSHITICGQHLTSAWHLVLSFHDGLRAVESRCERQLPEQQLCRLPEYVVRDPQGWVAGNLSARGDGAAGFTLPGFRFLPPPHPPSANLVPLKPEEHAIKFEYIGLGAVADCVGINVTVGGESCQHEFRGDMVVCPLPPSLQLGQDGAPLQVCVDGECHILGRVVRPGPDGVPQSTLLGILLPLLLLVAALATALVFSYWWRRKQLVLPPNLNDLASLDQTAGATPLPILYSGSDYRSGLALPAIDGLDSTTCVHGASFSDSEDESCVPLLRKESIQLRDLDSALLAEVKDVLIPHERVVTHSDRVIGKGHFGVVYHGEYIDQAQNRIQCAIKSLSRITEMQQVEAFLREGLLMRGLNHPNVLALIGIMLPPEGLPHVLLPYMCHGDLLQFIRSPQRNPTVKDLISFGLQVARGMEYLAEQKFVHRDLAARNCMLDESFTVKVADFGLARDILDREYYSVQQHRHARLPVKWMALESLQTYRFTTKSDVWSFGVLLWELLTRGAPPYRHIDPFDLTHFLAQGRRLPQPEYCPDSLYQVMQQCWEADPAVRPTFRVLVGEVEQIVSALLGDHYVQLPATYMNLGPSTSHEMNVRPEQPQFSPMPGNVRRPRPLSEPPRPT
# TEST CONTEXT: at 1 µM
# Description: GSK_PKIS: RON mean inhibition at 1 uM [Nanosyn]
QUANTITY MEASURED: inhibition (%)
Numbers only, in %.

Answered examples (4):
COc1ccc(-c2oc3ncnc(N)c3c2-c2ccc(NC(=O)Nc3cc(C(F)(F)F)ccc3F)cc2)cc1 ... 21.8
Cc1ccc(O)cc1Nc1ccnc2cc(-c3ccccn3)ccc12 ... 4.51
Fc1ccc(-c2cc(-c3c[nH]nc3-c3ccccn3)ccn2)cc1 ... 8.86
COC(=O)c1sc(-n2cnc3cc(OC)c(OC)cc32)cc1OCc1ccccc1C(F)(F)F ... 1.46

Now consider a different molecule.
Value lookup for inhibition; key = CCn1c(-c2nonc2N)nc2c(C#CC(C)(C)O)nc(OC[C@H](N)c3ccccc3)cc21
-1.45

###

Kindly supply the reported inhibition values for the records listed here.
# SUBJECT OF TEST: Ephrin type-A receptor 3 (Homo sapiens) (UniProt P29320)
# Sequence (P29320 whole entry): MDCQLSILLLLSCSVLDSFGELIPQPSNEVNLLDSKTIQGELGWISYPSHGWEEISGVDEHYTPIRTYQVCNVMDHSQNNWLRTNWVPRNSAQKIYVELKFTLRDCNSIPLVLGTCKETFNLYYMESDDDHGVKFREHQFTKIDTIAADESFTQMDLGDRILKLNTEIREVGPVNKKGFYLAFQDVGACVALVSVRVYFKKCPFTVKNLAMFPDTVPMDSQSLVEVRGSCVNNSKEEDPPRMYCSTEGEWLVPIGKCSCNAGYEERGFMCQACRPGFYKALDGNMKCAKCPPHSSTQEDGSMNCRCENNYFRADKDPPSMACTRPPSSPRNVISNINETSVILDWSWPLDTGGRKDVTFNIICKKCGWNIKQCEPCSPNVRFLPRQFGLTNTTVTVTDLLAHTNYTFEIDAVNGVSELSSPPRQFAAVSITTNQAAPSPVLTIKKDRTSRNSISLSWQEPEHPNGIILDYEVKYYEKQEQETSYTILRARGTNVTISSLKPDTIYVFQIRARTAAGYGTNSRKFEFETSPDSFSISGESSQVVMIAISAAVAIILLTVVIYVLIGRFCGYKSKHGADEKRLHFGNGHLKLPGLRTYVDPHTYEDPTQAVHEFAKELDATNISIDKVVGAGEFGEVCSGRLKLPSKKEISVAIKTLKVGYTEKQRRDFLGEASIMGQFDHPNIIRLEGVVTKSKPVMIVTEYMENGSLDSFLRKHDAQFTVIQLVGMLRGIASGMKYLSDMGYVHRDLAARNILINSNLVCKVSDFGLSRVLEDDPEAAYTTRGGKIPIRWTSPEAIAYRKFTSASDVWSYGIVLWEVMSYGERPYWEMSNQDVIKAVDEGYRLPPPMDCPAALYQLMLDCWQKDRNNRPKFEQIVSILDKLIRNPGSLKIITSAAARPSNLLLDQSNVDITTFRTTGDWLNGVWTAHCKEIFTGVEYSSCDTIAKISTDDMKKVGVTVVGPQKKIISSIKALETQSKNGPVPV
# TEST CONTEXT: at 1 µM
One number for each entry, in %.

Answered examples (3):
CCCN1CCC(c2ccc(Nc3nc(Nc4cc(F)ccc4C(N)=O)c4cc[nH]c4n3)c(OC)c2)CC1 ... 4.22
CCn1c(-c2nonc2N)nc2ccccc21 ... 3.08
CCn1cc(-c2ccnc3[nH]ccc23)c(-c2cccc(NC(=O)Nc3ccc(OCc4ccccc4)cc3)c2)n1 ... 1.02

Lab note: each molecule below needs its inhibition filled in.
1. COc1ccc(-c2oc3ncnc(N)c3c2-c2ccc(NC(=O)Nc3cc(C(F)(F)F)ccc3F)cc2)cc1
2. O=C(Nc1n[nH]c2cc(-c3ccc(F)cc3)ccc12)C1CC1
3. CCOc1ccc2c(-c3ccnc(Nc4cccc(C(F)(F)F)c4)n3)cnn2n1
4. N#Cc1c(NC(=O)c2ccc(F)cc2)sc2c1CCCC2
5. Cc1cccc(Nc2ncc(-c3ccccc3)o2)c1
6. COc1cc(Nc2nccc(Nc3ccc4c(C)n[nH]c4c3)n2)cc(OC)c1OC
7. CCn1c(-c2nonc2N)nc2c(C#CC(C)(C)O)nc(OC[C@H](N)c3ccccc3)cc21

1: 87.1; 2: 4.36; 3: 5.76; 4: 2.8; 5: 2.7; 6: 15.3; 7: 1.87
